target under test: SIRT1 (Homo sapiens, UniProt Q96EB6)
Sequence (Q96EB6 whole entry): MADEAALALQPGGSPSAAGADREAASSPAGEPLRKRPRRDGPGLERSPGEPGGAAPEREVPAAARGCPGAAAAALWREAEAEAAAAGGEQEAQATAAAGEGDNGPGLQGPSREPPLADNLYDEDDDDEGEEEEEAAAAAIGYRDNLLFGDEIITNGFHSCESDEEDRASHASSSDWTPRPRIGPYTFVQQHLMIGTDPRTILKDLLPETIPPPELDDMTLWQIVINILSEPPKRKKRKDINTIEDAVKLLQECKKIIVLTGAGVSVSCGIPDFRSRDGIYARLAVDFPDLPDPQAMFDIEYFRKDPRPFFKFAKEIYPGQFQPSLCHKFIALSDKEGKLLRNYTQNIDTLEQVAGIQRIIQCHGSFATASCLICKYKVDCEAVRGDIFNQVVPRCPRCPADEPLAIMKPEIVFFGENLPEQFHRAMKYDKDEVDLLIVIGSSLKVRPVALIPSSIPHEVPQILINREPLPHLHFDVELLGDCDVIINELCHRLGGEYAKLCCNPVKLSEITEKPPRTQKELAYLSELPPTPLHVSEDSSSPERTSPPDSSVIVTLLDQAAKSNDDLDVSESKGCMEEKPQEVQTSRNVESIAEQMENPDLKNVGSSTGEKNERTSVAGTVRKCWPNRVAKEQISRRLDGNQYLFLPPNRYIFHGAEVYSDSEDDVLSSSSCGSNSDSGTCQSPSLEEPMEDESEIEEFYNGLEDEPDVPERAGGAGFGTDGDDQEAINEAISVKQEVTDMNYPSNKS
method notes: Mass spectrometry based SIRT1 deacetylation assay (activation)
Type: biochemical
condition info: 10 nM SIRT1, 0.5 μM peptide substrate, 120 μM βNAD+, 25 min at 25° C.
measurement type: EC1.5 (concentration of test compound that results in 150% activation of SIRT1)

molecule smiles | target under test | data value
O=C(Nc1cccc2ccc(-c3ccc(F)c(C(F)(F)F)c3)nc12)c1cscn1 | SIRT1 (Homo sapiens, UniProt Q96EB6) | C (EC1.5>25 uM)
O=C(Nc1cccc2ccc(-c3cc(F)cc(C(F)(F)F)c3)nc12)c1ccccc1 | SIRT1 (Homo sapiens, UniProt Q96EB6) | C (EC1.5>25 uM)
O=C(Nc1cccc2ccc(-c3cccc(O)c3)nc12)c1cscn1 | SIRT1 (Homo sapiens, UniProt Q96EB6) | B (EC1.5 1-25 uM)
O=C(NC1CCCC1)c1cccc2ccc(-c3cccc(O[C@@H]4CCNC4)c3)nc12 | SIRT1 (Homo sapiens, UniProt Q96EB6) | B (EC1.5 1-25 uM)

----------
target under test: SIRT1 (Homo sapiens)
method notes: Mass spectrometry based SIRT1 deacetylation assay (activation)
Assay type: biochemical
condition info: 10 nM SIRT1, 0.5 μM peptide substrate, 120 μM βNAD+, 25 min at 25° C.
measurement type: EC1.5 (concentration of test compound that results in 150% activation of SIRT1)

Look over these answered cases.
molecule | target under test | data value
O=C(Nc1cccnc1)c1cccc2ccc(-c3cccc(C(F)F)c3)nc12 [Compound 260] | SIRT1 (Homo sapiens) | A (EC1.5<1.0 uM)
O=C(Nc1cccc2ccc(-c3ccc(O)cc3)nc12)c1cscn1 [Compound 186] | SIRT1 (Homo sapiens) | B (EC1.5 1-25 uM)
CS(=O)(=O)c1cccc(-c2ccc3cccc(NC(=O)c4cscn4)c3n2)c1 [Compound 81] | SIRT1 (Homo sapiens) | A (EC1.5<1.0 uM)
O=C(Nc1cccnc1)c1cccc2ncc(-c3cccc(C(F)(F)F)c3)nc12 [Compound 124] | SIRT1 (Homo sapiens) | A (EC1.5<1.0 uM)
O=C(Nc1cccc2ccc(-c3cc(F)cc(F)c3)nc12)c1cscn1 [Compound 78] | SIRT1 (Homo sapiens) | C (EC1.5>25 uM)

Incoming: Fill in the blank: the reported EC1.5 (concentration of test compound that results in 150% activation of SIRT1) of FC(F)(F)Oc1cccc(-c2ccc3cccc(NCc4nccs4)c3n2)c1 [Compound 140] is ____.
Outgoing: C (EC1.5>25 uM)

Incoming: Fill in the blank: the reported EC1.5 (concentration of test compound that results in 150% activation of SIRT1) of O=C(Nc1cccnc1)c1cccc2cc(C(F)(F)F)c(-c3ccccc3)nc12 [Compound 193] is ____.
Outgoing: C (EC1.5>25 uM)

Incoming: Fill in the blank: the reported EC1.5 (concentration of test compound that results in 150% activation of SIRT1) of O=C(Nc1cccc2ccc(-c3cccnc3)nc12)c1cscn1 [Compound 76] is ____.
Outgoing: A (EC1.5<1.0 uM)

Incoming: Fill in the blank: the reported EC1.5 (concentration of test compound that results in 150% activation of SIRT1) of O=C(Nc1cccc2ccc(-c3cccc(C(F)(F)F)c3)nc12)c1cccs1 [Compound 204] is ____.
Outgoing: B (EC1.5 1-25 uM)

Incoming: Fill in the blank: the reported EC1.5 (concentration of test compound that results in 150% activation of SIRT1) of O=C(NC1CCOCC1)c1cccc2ccc(-c3cccc(C(F)(F)F)c3)nc12 [Compound 39] is ____.
Outgoing: B (EC1.5 1-25 uM)

Incoming: Fill in the blank: the reported EC1.5 (concentration of test compound that results in 150% activation of SIRT1) of O=C(Nc1ccc(Cl)nc1)c1cccc2ccc(-c3cccc(C(F)(F)F)c3)nc12 [Compound 58] is ____.
Outgoing: A (EC1.5<1.0 uM)

Incoming: Fill in the blank: the reported EC1.5 (concentration of test compound that results in 150% activation of SIRT1) of O=C(Nc1cccnc1)c1cccc2ccc(-c3cccc(OC4CCNCC4)c3)nc12 [Compound 132] is ____.
Outgoing: A (EC1.5<1.0 uM)

Incoming: Fill in the blank: the reported EC1.5 (concentration of test compound that results in 150% activation of SIRT1) of O=C(Nc1ccnc(N2CCCC2)c1)c1cccc2ccc(-c3cccc(C(F)(F)F)c3)nc12 [Compound 322] is ____.
Outgoing: A (EC1.5<1.0 uM)

Incoming: Fill in the blank: the reported EC1.5 (concentration of test compound that results in 150% activation of SIRT1) of Cc1cc(NC(=O)c2cccc3ccc(-c4cccc(C(F)(F)F)c4)nc23)no1 [Compound 73] is ____.
Outgoing: B (EC1.5 1-25 uM)

Incoming: Fill in the blank: the reported EC1.5 (concentration of test compound that results in 150% activation of SIRT1) of O=C(Nc1nc(CN2CCOCC2)cs1)c1cccc2ccc(-c3ccccc3C(F)(F)F)nc12 [Compound 274] is ____.
Outgoing: A (EC1.5<1.0 uM)

----------
target under test: SIRT1 (Homo sapiens, UniProt Q96EB6)
method notes: Mass spectrometry based SIRT1 deacetylation assay (activation)
Assay type: biochemical
condition info: 10 nM SIRT1, 0.5 μM peptide substrate, 120 μM βNAD+, 25 min at 25° C.
measurement type: EC1.5 (concentration of test compound that results in 150% activation of SIRT1)

Look over these answered cases.
compound | data value
CS(=O)(=O)c1cncc(-c2ccc3cccc(NC(=O)c4cscn4)c3n2)c1 | B (EC1.5 1-25 uM)
Cn1cnc(C(=O)Nc2cccc3ccc(-c4cccnc4)nc23)c1 | B (EC1.5 1-25 uM)
O=C(N[C@H]1CCNC1)c1cccc2ccc(-c3cccc(C(F)(F)F)c3)nc12 | C (EC1.5>25 uM)
O=C(Nc1cccc2ccc(-c3cccc(OC(F)(F)F)c3)nc12)c1cscn1 | B (EC1.5 1-25 uM)
Cc1cc(C)nc(NC(=O)c2cccc3ccc(-c4cccnc4)nc23)c1 | A (EC1.5<1.0 uM)

Incoming: Form: Entry = `O=C(Nc1cccc2ccc(-c3cccc(CN4CCNCC4)c3)nc12)c1cscn1` | System = SIRT1 (Homo sapiens, UniProt Q96EB6) | EC1.5 (concentration of test compound that results in 150% activation of SIRT1) = ____
Outgoing: A (EC1.5<1.0 uM)

Incoming: Form: Entry = `FC(F)(F)c1cccc(-c2ccc3cccc(NCC4CCCC4)c3n2)c1` | System = SIRT1 (Homo sapiens, UniProt Q96EB6) | EC1.5 (concentration of test compound that results in 150% activation of SIRT1) = ____
Outgoing: C (EC1.5>25 uM)

Incoming: Form: Entry = `O=C(NCc1ccccn1)c1cccc2ccc(-c3cccc(C(F)(F)F)c3)nc12` | System = SIRT1 (Homo sapiens, UniProt Q96EB6) | EC1.5 (concentration of test compound that results in 150% activation of SIRT1) = ____
Outgoing: B (EC1.5 1-25 uM)

Incoming: Form: Entry = `O=C(Nc1ncnc2ccc(-c3cccc(OC(F)(F)F)c3)nc12)c1cccc(C(F)(F)F)c1` | System = SIRT1 (Homo sapiens, UniProt Q96EB6) | EC1.5 (concentration of test compound that results in 150% activation of SIRT1) = ____
Outgoing: C (EC1.5>25 uM)

Incoming: Form: Entry = `O=C(Nc1cccc2ccc(-c3ccncc3)nc12)c1cscn1` | System = SIRT1 (Homo sapiens, UniProt Q96EB6) | EC1.5 (concentration of test compound that results in 150% activation of SIRT1) = ____
Outgoing: A (EC1.5<1.0 uM)

Incoming: Form: Entry = `O=C(Nc1ncc(CN2CCOCC2)s1)c1cccc2ccc(-c3cccc(C(F)(F)F)c3)nc12` | System = SIRT1 (Homo sapiens, UniProt Q96EB6) | EC1.5 (concentration of test compound that results in 150% activation of SIRT1) = ____
Outgoing: A (EC1.5<1.0 uM)

----------
target under test: SIRT1 (Homo sapiens, UniProt Q96EB6)
method notes: Mass spectrometry based SIRT1 deacetylation assay (activation)
Format: biochemical
condition info: 10 nM SIRT1, 0.5 μM peptide substrate, 120 μM βNAD+, 25 min at 25° C.
measurement type: EC1.5 (concentration of test compound that results in 150% activation of SIRT1)

Look over these answered cases.
molecule smiles | data value
O=C(Nc1cccc2ccc(-c3ccc4c(c3)OCO4)nc12)c1cscn1 | A (EC1.5<1.0 uM)
Cc1nnc(NC(=O)c2cccc3ccc(-c4cccc(N5CCOCC5)c4)nc23)s1 | A (EC1.5<1.0 uM)
Cn1ccc(C(=O)Nc2cccc3ccc(-c4cncc(F)c4)nc23)n1 | C (EC1.5>25 uM)
O=C(Nc1ccccn1)c1cccc2cnc(-c3cccc(C(F)(F)F)c3)nc12 | C (EC1.5>25 uM)
O=C(Nc1nccs1)c1cccc2ccc(-c3ccc(C(F)(F)F)cc3)nc12 | C (EC1.5>25 uM)

For the next question, use this compound.
Incoming: Fill in the blank: the reported EC1.5 (concentration of test compound that results in 150% activation of SIRT1) of `O=C(Nc1nncs1)c1cccc2ccc(-c3cccnc3)nc12` is ____.
Outgoing: C (EC1.5>25 uM)
